Tested on: Calu-3
Assay: cell viability relative to DMSO; higher = less toxic
Conditions: 72 h; 10 nM
property.label: cell viability (%)
Kindly provide the numeric value in % only, without the unit symbol.

>  <molecule>
CCOc1c2c(c(OCC)c3ccccc13)C(=O)N(c1ccc(CC(=O)NS(=O)(=O)c3ccccc3)cc1)C2

>  <unit.info>
%

>  <cell viability>
98.6

$$$$
>  <molecule>
Cc1cc(N2CCN([C@@H]3CN[C@H](C(=O)N4CCSC4)C3)CC2)n(-c2ccccc2)n1

>  <unit.info>
%

>  <cell viability>
108

$$$$
>  <molecule>
Oc1c(I)cc(I)cc1I

>  <unit.info>
%

>  <cell viability>
95

$$$$
>  <molecule>
C[C@H]1C[C@H]2[C@@H]3CCC4=CC(=O)C=C[C@]4(C)[C@@]3(Cl)[C@@H](O)C[C@]2(C)[C@@]1(O)C(=O)CO

>  <unit.info>
%

>  <cell viability>
97.3

$$$$
>  <molecule>
CS(=O)(=O)c1ccc(-c2cnc(NCc3ccco3)n3cnnc23)cc1

>  <unit.info>
%

>  <cell viability>
102

$$$$
>  <molecule>
CCOc1cncc(/C=C/CCNC)c1

>  <unit.info>
%

>  <cell viability>
98.9

$$$$

Measured cell viability, CC(C)NCC(O)c1ccc(N)c(C#N)c1 (centres undefined) : 93.2

These measurements were taken from the supplement of paper PMC13380429.
